Known LD50 of a selection of molecules
# ASSAY: Toxicity test: acute toxicity (LD50) in oral administration
# TEST CONDITIONS: mouse, in vivo, male ddY-strain mice, five per group
Where a name gives a salt, the structure may show the parent alone.
PARAMETER MEASURED: LD50 (mg/kg)

MOLECULE | RECORDED VALUE
Cc1oc(=O)oc1COC(=O)[C@@H]1N2C(=O)[C@@H](N=CN3CCCCCC3)[C@H]2SC1(C)C [Compound (I).HCl.H2 O, hydrochloride monohydrate] | 5210
CC(C)(C)C(=O)OCOC(=O)[C@@H]1N2C(=O)[C@@H](N=CN3CCCCCC3)[C@H]2SC1(C)C [Pivmecillinam.HCl] | 3840
